These entries and their values trace back to BindingDB's records for doi:10.1111/cbdd.12793.

Target: Tyrosine--tRNA ligase (Staphylococcus aureus (strain MSSA476), UniProt Q6G8J9)
Assay: In vitro Enzyme Inhibition Assay
Details: pH 7.9
pIC50: −log10 of the molar value.
reported endpoint: pIC50

These solved cases illustrate the format of a correct answer.
Cc1ccccc1-c1cc(C(=O)OCCn2c([N+](=O)[O-])cnc2C)nn1-c1ccc(Cl)cc1 | 5.29
Cc1cccc(-c2cc(C(=O)OCCn3c([N+](=O)[O-])cnc3C)nn2-c2ccccc2)c1 | 4.67
Cc1ncc([N+](=O)[O-])n1CCOC(=O)c1cc(-c2ccc(Cl)cc2)n(-c2ccc(Cl)cc2)n1 | 4.27

P. Cc1ncc([N+](=O)[O-])n1CCOC(=O)c1cc(-c2ccc(I)cc2)n(-c2ccccc2)n1
Q. Cc1ncc([N+](=O)[O-])n1CCOC(=O)c1cc(-c2ccccc2)n(-c2ccccc2)n1
Task item: Which shows the larger pIC50 value: P or Q ? Answer format: the label of the selected item.
Reply: P
